These measurements were taken from the supplement of paper PMC10126150.

Tested on: ATP;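 further: ATP exposure 15 min at 22 °C before imaging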
Assay: switch fluorescence ratio, 500 uM ATP over buffer (Cy3 cluster intensity, sum of 5 cycles each) (fold (ratio)); higher = stronger signal-on switching upon ATP binding; sequences stand for … in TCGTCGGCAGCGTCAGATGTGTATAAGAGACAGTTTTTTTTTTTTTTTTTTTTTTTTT…TC
Conditions: aptamer strand: ATP DNA aptamer (quencher-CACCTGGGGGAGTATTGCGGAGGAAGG + anchor), 100 nM annealed; ATP concentration: 500 uM
Reported switch fluorescence ratio values for the following sequences.
MEASURED_PROPERTY: switch fluorescence ratio

1. TTATACCGTT = 0.999
2. CTTCTTAAGA = 0.984
3. GAGGTCAGTG = 0.974
4. TTTTTCGACC = 1.01
5. GCATCCGAAG = 1.27
6. GGACCAGGGT = 1.04
7. TATGGTTAAT = 0.982
8. GACGTCAGGG = 0.997
9. ATAGGAAGGA = 1.04
10. AGAGGGACAT = 1.09
